Hey, just so you know, these numbers are from patent US20260132182A1.

# tested_target: human GLP-1 receptor (human, UniProt P43220 24-463)
# experiment_summary: cell-based or functional assay
Starred links: 1 amine or outer side, 2 acyl side, 3 side chain; linkers in the order of their positions; H or OH if unused. Non-standard residues stand in square brackets, D forms with d. Groups on a side chain read outwards from the residue. *: point of attachment. Undecanoyl(11-OPh(4-COOH)) = O=C(O)c1ccc(OCCCCCCCCCCC(=O)*)cc1; C20 diacid = O=C(O)CCCCCCCCCCCCCCCCCCC(=O)*; C18 diacid = O=C(O)CCCCCCCCCCCCCCCCC(=O)*; C16 diacid = O=C(O)CCCCCCCCCCCCCCC(=O)*; γGlu = O=C(O)[C@H](CCC(=O)[*:2])N[*:1]; εLys = N[C@@H](CCCCN[*:1])C(=O)[*:2]; Trx = NC[C@H]1CC[C@H](C(=O)O)CC1; AEEA = NCCOCCOCC(=O)O; Aib = CC(C)(N)C(=O)O
Recorded Human GLP-1R potency [EC50 (pM)] for the following binders
Note: unit pM is implicit; provide only the numeric part.

[
  {
    "binder": "Compound 0052 (peptide) peptide: H[Aib]EGTFTSDVSSYLEGQAAK([AEEA-AEEA-γGlu-C18 diacid])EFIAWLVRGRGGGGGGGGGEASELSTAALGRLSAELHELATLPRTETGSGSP-NH2",
    "endpoint_value": 17
  },
  {
    "binder": "Compound 0299 (peptide) peptide: H[Aib]EGTFTSDVSSYLEEK([AEEA-AEEA-γGlu-C16 diacid])AAREFIAWLVRGRGGGGGEASELSTAALGRLSAELHK([AEEA-AEEA-γGlu-C16 diacid])LATLPRTETGSGSP-NH2",
    "endpoint_value": 6
  },
  {
    "binder": "Compound 0436 (not fully specified (residue 20)) peptide: H[Aib]EGTFTSDVSSYLEEQAAKEFIEWLVRGRGEASELSTAALGRLSAELHELATLPRTETGSGSP-NH2",
    "endpoint_value": 15.2
  },
  {
    "binder": "Compound 0482 (peptide) peptide: HAEGTFTSDVSK([AEEA-AEEA-γGlu-C16 diacid])YLEEQAVREFIAK([AEEA-AEEA-γGlu-C16 diacid])LVRGRGGGEASELSTAALGRLSAELHELATLPRTETGSGSP-NH2",
    "endpoint_value": 36.5
  },
  {
    "binder": "Compound 0296 (peptide) peptide: H[Aib]EGTFTSDVSSYLEEQAARK([AEEA-AEEA-γGlu-C16 diacid])FIAWLVRGRGGGGGASELSTAALGRLSK([AEEA-AEEA-γGlu-C16 diacid])ELHELATLPRTETGSGSP-NH2",
    "endpoint_value": 4
  }
]

Ask: What Human GLP-1R potency [EC50 (pM)] value was documented for this binder, Compound 0255 (peptide) peptide: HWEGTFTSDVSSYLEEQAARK([AEEA-AEEA-γGlu-Undecanoyl(11-OPh(4-COOH))])FIEWLVRGRGEGGGGGASELSTAALGRLSK([AEEA-AEEA-γGlu-Undecanoyl(11-OPh(4-COOH))])ELHELATLPRTETGSGSP-NH2 ?
Reply: 2.5

Ask: Do the same for Compound 0431 (peptide) peptide: HAEGTFTSDK([AEEA-AEEA-γGlu-Trx-C20 diacid])SSYLEEQAAREFIEWLVRGRGEASELSTAALGRLSAELHELATLPRTETGSGSP-NH2 please
Reply: 10.9

Ask: Do the same for Compound 0264 (peptide) peptide: H[Aib]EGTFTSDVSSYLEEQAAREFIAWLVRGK([AEEA-AEEA-γGlu-Trx-C20 diacid])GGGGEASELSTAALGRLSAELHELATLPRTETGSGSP-NH2 please
Reply: 6.5

Ask: Do the same for Compound 0110 (peptide) peptide: H[Aib]EGTFTSDVSSYLEEQAARK([εLys-AEEA-AEEA-γGlu-C18 diacid])FIAWLVRGK([εLys-AEEA-AEEA-γGlu-C18 diacid])GGGGGGGGGEASELSTAALGRLSAELHELATLPRTETGSGSP-NH2 please
Reply: 2.7

Ask: Do the same for Compound 0144 (peptide) peptide: H[Aib]EGTFTSDVSSYLEEQAAREFIAWLVK([AEEA-AEEA-γGlu-C18 diacid])GRGGGGGEASELSTAALGRLSAELHELATLPRTETGSGSP-NH2 please
Reply: 7.1

Ask: Do the same for Compound 0259 (peptide) peptide: H[Aib]EGTFTSDK([AEEA-AEEA-γGlu-C16 diacid])SSYLEEQAAREFIAWLVRGRGGGGGEASELSTAALGRLSAELHK([AEEA-AEEA-γGlu-C16 diacid])LATLPRTETGSGSP-NH2 please
Reply: 15.8

Ask: Do the same for Compound 0159 (peptide) peptide: H[Aib]EGTFTSDVSSYLEGQAAK([εLys-AEEA-AEEA-γGlu-C18 diacid])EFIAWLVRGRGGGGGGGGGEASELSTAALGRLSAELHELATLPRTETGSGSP-NH2 please
Reply: 30.3

Ask: Do the same for Compound 0577 (not fully specified (residue 21)) peptide: H[Aib]EGTFTSDVSK([AEEA-AEEA-γGlu-C16 diacid])YLEEQAARKFIEWLVRGRGEASELSTAALGRLSAELHELATLPRTETGSGSP-NH2 please
Reply: 5.6

Ask: Do the same for Compound 0114 (peptide) peptide: H[Aib]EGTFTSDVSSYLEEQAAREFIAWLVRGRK([AEEA-AEEA-γGlu-C18 diacid])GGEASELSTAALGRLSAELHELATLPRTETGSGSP-NH2 please
Reply: 1

Ask: Do the same for Compound 0132 (peptide) peptide: H[Aib]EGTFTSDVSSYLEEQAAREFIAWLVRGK([AEEA-AEEA-γGlu-C18 diacid])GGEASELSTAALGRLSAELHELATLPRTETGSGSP-NH2 please
Reply: 3
